The reader will find reported TGI values listed item by item below.
- System: SK-OV-3 ovarian
- Protocol summary: NCI tumour cell line growth inhibition, 48 h
Measurement label: TGI

- CC(C)/C=N\N1C(N)=C(C#N)C(C#N)(C#N)C1C(C)C (centres undefined): > 100 µM
- CN1c2ccc(O)c(O)c2-c2cc(O)cc3c2C1CCC3 (centres undefined): > 100 µM
- COC(=O)C1(C(=O)OC)CC(=O)c2c(OC(=O)c3cccc(OC)c3C#N)ccc(OC(=O)c3cccc(OC)c3C#N)c2C1: > 100 µM
- CSc1nc(N)cc(Oc2ccc(-c3nc(Nc4cccc(C(F)(F)F)c4)n[nH]3)cc2)n1: 3.93 µM
